Test: Metabolic stability in pooled mouse liver microsomes at 0.5 uM after 10 mins by UV based analysis
Type: ADME, Microsome
Details: read-out: Stability
observation_type: remaining at 10 min, 0.5 µM

Query :: Entry NC(=O)c1ccccc1Nc1cc(Nc2ccc(F)cn2)ncc1C(N)=O : reported remaining at 10 min, 0.5 µM = ?
Result :: > 80%

====

Test: Drug concentration in Balb/c mouse at 10 mg/kg, po after 0.05 hrs
Type: ADME, organism-based
Details: in vivo, read-out: Drug uptake
Reported concentration at 0.05 h by item:
// units = nM; emit number, no label

# query_smiles, concentration at 0.05 h (nM)
rows = [
    ("[2H]C([2H])([2H])NC(=O)c1cnc(Nc2ccc(F)cn2)cc1Nc1ccccc1S(C)(=O)=O", 750),
]

Please find the next compound below.
Query :: Entry CNC(=O)c1cnc(Nc2ccc(F)cn2)cc1Nc1ccccc1S(C)(=O)=O : reported concentration at 0.05 h = ?
Result :: 780

====

Target: Non-receptor tyrosine-protein kinase TYK2 (Homo sapiens, UniProt P29597)
Sequence (P29597 whole entry, the tested form may be a part): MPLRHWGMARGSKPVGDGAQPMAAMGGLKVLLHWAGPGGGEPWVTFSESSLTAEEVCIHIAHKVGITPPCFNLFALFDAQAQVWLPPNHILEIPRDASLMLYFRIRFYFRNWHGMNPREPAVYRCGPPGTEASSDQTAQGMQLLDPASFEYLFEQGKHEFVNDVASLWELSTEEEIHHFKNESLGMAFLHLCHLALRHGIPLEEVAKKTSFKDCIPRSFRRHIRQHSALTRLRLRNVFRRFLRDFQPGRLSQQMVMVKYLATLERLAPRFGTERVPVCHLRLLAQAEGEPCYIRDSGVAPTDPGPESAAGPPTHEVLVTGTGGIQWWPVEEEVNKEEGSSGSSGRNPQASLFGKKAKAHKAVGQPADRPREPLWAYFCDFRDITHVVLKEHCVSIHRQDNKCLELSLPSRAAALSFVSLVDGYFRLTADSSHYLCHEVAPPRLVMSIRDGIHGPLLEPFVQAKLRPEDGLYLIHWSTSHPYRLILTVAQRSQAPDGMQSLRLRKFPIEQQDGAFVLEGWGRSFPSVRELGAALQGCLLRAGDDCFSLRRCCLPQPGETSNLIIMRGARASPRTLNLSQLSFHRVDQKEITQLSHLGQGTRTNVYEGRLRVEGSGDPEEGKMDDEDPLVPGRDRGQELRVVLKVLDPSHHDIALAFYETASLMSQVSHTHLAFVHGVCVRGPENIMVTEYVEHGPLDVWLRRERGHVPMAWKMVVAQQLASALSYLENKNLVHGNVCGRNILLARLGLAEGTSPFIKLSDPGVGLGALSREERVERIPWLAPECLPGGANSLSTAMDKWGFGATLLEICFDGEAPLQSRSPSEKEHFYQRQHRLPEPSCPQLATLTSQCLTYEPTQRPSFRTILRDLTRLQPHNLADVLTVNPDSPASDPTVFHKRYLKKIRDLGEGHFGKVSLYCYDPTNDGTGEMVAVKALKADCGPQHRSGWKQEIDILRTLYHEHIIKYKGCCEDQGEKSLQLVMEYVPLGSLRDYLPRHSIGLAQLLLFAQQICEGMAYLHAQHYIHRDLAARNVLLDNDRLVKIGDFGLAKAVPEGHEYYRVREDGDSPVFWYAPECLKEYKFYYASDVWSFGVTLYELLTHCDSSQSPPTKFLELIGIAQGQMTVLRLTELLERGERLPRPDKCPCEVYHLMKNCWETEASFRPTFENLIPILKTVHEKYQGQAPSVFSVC
Experiment: Inhibition of TYK2 JH2 domain in human whole blood assessed as inhibition of IFNalpha-induced STAT5 phosphorylation preincubated for 1 hr followed by IFNalpha stimulation and measured after 15 mins by fluorescence assay
Assay type: tissue-based
observation_type: pIC50
# log scale: pIC50 equals minus log10 of the concentration in mol/L

# query_smiles, observed
rows = [
    ("[2H]C([2H])([2H])NC(=O)c1nnc(Nc2ccccn2)cc1Nc1ccccc1S(C)(=O)=O", 6.89),
    ("CNC(=O)c1cnc(Nc2ccc(N3CCOCC3)cn2)cc1Nc1ccccc1S(C)(=O)=O", 7.24),
]

Query :: Entry [2H]C([2H])([2H])NC(=O)c1nnc(Nc2ccc(F)cn2)cc1Nc1ccccc1S(C)(=O)=O : reported pIC50 = ?
Result :: 6.70

Query :: Entry [2H]C([2H])([2H])NC(=O)c1nnc(NC(=O)C2CC2)cc1Nc1ccccc1S(C)(=O)=O : reported pIC50 = ?
Result :: 6.64

Query :: Entry CCS(=O)(=O)c1ccccc1Nc1cc(Nc2ccc(F)cn2)ncc1C(=O)NC : reported pIC50 = ?
Result :: 5.36

Query :: Entry CNC(=O)c1cnc(Nc2cc(C)ccn2)cc1Nc1ccccc1S(C)(=O)=O : reported pIC50 = ?
Result :: 6.72

Query :: Entry CNC(=O)c1cnc(Nc2ccc(F)cn2)cc1Nc1ccc(F)c(F)c1OC : reported pIC50 = ?
Result :: 5.62

Query :: Entry CNC(=O)c1cnc(Nc2ccc(F)cn2)cc1Nc1ccccc1OC : reported pIC50 = ?
Result :: 5.48

Query :: Entry CNC(=O)c1cnc(Nc2ccc(F)cn2)cc1Nc1ccccc1SC : reported pIC50 = ?
Result :: 5.51

Query :: Entry CNC(=O)c1cnc(NC(=O)C(C)C)cc1Nc1ccccc1S(C)(=O)=O : reported pIC50 = ?
Result :: 5.28

====

Experiment: Drug concentration in Balb/c mouse at 10 mg/kg, po after 3 hrs
Type: ADME, organism-based
Conditions: in vivo, read-out: Drug uptake
observation_type: concentration at 3 h (µM)
// units = µM; emit number, no label

# query_smiles, reading_unit, concentration at 3 h
measured = [
    ("CNC(=O)c1cnc(Nc2ccc(F)cn2)cc1Nc1ccccc1S(C)(=O)=O", "µM", 1.5),
]

Query :: Entry [2H]C([2H])([2H])NC(=O)c1cnc(Nc2ccc(F)cn2)cc1Nc1ccccc1S(C)(=O)=O : reported concentration at 3 h = ?
Result :: 1.3

Provenance of the data: ChEMBL document CHEMBL4414548
